Target: XC_3703 (Xanthomonas campestris, UniProt Q4UQD0)
Construct: full-length, synthesized gene in pET47b, E. coli BL21(DE3), N-terminal His6 tag cut by 3C protease
Sequence (Q4UQD0 whole entry): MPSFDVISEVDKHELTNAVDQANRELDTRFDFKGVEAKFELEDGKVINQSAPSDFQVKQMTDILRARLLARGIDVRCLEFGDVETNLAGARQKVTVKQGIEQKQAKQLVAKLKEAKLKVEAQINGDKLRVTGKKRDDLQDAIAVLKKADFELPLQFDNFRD
Experiment: isothermal titration calorimetry
Format: binding
Conditions: read-out: Kd
pKd: −log10 of the molar value.
Below, each of the molecules is paired with its reported pKd value.

- Smiles record: "Nc1ncnc2c1ncn2[C@@H]1O[C@H](COP(=O)(O)OP(=O)(O)OP(=O)(O)O)[C@@H](O)[C@H]1O"
  Target desc: "XC_3703 (Xanthomonas campestris, UniProt Q4UQD0)"
  pKd: 2.52
- Smiles record: "Nc1nc2c(ncn2[C@@H]2O[C@H](COP(=O)(O)OP(=O)(O)OP(=O)(O)O)[C@@H](O)[C@H]2O)c(=O)[nH]1"
  Target desc: "XC_3703 (Xanthomonas campestris, UniProt Q4UQD0)"
  pKd: 1.89

These entries and their values trace back to paper PMC4199771.
